Reported % inhibition of labeled B4 binding values follow for various binders
- TESTED_ON: T1, CD19 antigen on Daudi lymphoma cells (human, UniProt P15391 20-556)
- T1 construct: whole, on cells; also called Daudi cells
- T1 sequence (looked up): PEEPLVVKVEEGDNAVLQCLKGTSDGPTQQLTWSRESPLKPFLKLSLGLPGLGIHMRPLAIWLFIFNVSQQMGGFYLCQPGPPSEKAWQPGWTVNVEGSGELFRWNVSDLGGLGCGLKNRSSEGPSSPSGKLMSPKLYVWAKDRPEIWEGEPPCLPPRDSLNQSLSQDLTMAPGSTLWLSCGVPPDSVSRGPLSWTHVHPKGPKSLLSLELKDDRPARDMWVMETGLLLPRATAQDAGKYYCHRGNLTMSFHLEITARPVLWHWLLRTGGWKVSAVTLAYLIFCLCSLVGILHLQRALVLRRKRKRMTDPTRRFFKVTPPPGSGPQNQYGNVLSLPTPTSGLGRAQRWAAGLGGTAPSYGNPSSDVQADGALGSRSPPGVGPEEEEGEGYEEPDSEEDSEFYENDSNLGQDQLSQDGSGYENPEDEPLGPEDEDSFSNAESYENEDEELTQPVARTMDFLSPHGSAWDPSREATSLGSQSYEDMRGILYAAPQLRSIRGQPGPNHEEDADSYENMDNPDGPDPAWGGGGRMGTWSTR
- PROTOCOL_SUMMARY: FACS competition on Daudi cells; unlabeled antibody 400 ng/ml (4x) vs competitor biotin-B4 VH0/VK0 100 ng/ml

Look over these answered cases.
B4 VHv1/VKv2 antibody (antibody, V domains shown) VH: QVQLQQPGAEVVKPGASVRLSCETSGYTFTSNWMHWVKQRPDQGLEWIGEIDPSDSYTNYNQKFKGKAELTVDKSSSTAYMEVSDLTSEDSAVYYCARGSNPYYYAMDYWGQGTSVTVSS VL: DIVLTQSPATLSASPGEKVTMTCSASSGVNYMHWYQQKPGTSPKRWIYDTSKLDSGVPARFSGSGSGTSYSLTISSMEAEDAATYYCHQRGSYTFGGGTKLEIK | 44%
B4 VHv3/VKv4 antibody (antibody, V domains shown) VH: QVQLEQPGAEVKKPGASVKVSCKASGYTFTSNWMHWVKQRPGQGLEWIGEIDPSDSYTNYNQKFKGKAKLTVDKSSSTAYMEVSDLTAEDSAVYYCARGSNPYYYAMDYWGQGTSVTVSS VL: QIVLTQSPATLSASPGEKATMTCSASSGVNYMHWYQQKPGTSPKRWIYDTDKTASGVPARFSGSGSGTSYSLTISSMEAEDAATYYCHQRGSYTFGGGTKLEIK | 52%
B4 VHv1/VKv1 antibody (antibody, V domains shown) VH: QVQLQQPGAEVVKPGASVRLSCETSGYTFTSNWMHWVKQRPDQGLEWIGEIDPSDSYTNYNQKFKGKAELTVDKSSSTAYMEVSDLTSEDSAVYYCARGSNPYYYAMDYWGQGTSVTVSS VL: QIALTQEPAIMSASPGEKVTMTCSASSGVNYMHWYQQKPGTSPKRWIYDTSKLDSGVPARFSGSGSGTSYSLTISSMEAEDAATYYCHQRGSYTFGGGTKLEIK | 44%
B4 VHv2/VKv1 antibody (antibody, V domains shown) VH: QVQLQQPGAEVVKPGASVRLSCKTSGYTFTSNWMHWVKQRPGQGLEWIGEIDPSDSYTNYNQKFKGKAELTVDKSSSTAYMEVSDLTSEDSAVYYCARGSNPYYYAMDYWGQGTSVTVSS VL: QIALTQEPAIMSASPGEKVTMTCSASSGVNYMHWYQQKPGTSPKRWIYDTSKLDSGVPARFSGSGSGTSYSLTISSMEAEDAATYYCHQRGSYTFGGGTKLEIK | 40%

### Prompt Can you look up the measured % inhibition of labeled B4 binding of B4 VH0/VK0 antibody (antibody, V domains shown, Expressed from pdHL12 as intact heavy and light chains; also called parental B4 antibody) VH: QVQLQQPGAEVVKPGASVRLSCKTSGYTFTSNWMHWVKQRPGQGLEWIGEIDPSDSYTNYNQKFKGKAKLTVDKSSSTAYMEVSSLTSEDSAVYYCARGSNPYYYAMDYWGQGTSVTVSS VL: QIVLTQSPAIMSASPGEKVTMTCSASSGVNYMHWYQQKPGTSPKRWIYDTSKLASGVPARFSGSGSGTSYSLTISSMEAEDAATYYCHQRGSYTFGGGTKLEIK for me?
### Response 56%

Source listed as patent US20190241671A1.
